These measurements were taken from patent US20220289753A1.

# Tested on: ERK phosphorylation in KYSE-520 cells
# Method: Phospho-ERK cellular assay (Advanced phospho-ERK1/2 (Thr202/Tyr204) TR-FRET kit)
# Format: cell-based
# Run conditions: Homo sapiens, KYSE-520, 2 h, KYSE-520 cells, 2 h at 37° C., TR-FRET; read-out: pERK IC50
Property: IC50

{"Compound": "N[C@@H]1c2ccccc2OC12CCN(c1nc3nc(Sc4cccnc4C(F)(F)F)cnc3[nH]1)CC2 [Example 143]", "Property": "IC50", "Observed value": "< 1 µM"}
{"Compound": "N[C@@H]1c2cccnc2CC12CCN(c1nc3nc(Sc4ccncc4Cl)cnc3[nH]1)CC2 [Example 150]", "Property": "IC50", "Observed value": "1 to 5 µM"}
{"Compound": "Cc1c(Sc2cnc3nc(N4CCC5(CC4)Cc4ccccc4[C@H]5N)[nH]c3n2)ccnc1N [Example 204]", "Property": "IC50", "Observed value": "< 1 µM"}
{"Compound": "COc1nccc(Sc2cnc3[nH]c(N4CCC5(CC4)Cc4ccc(Br)cc4[C@H]5N)nc3n2)c1Cl [Example 228]", "Property": "IC50", "Observed value": "> 5 µM"}
{"Compound": "N[C@@H]1c2ccncc2CC12CCN(c1nc3ncc(Sc4ccnc(NC5CC5)c4Cl)nc3[nH]1)CC2 [Example 196]", "Property": "IC50", "Observed value": "< 1 µM"}
{"Compound": "N#Cc1ccc2c(c1)[C@@H](N)C1(CCN(c3nc4nc(Sc5ccnc(N)c5Cl)cnc4[nH]3)CC1)C2 [Example 256]", "Property": "IC50", "Observed value": "> 5 µM"}
{"Compound": "N[C@@H]1c2ccccc2CC12CCN(c1nc3nc(Sc4ccnnc4Cl)cnc3[nH]1)CC2 [Example 247]", "Property": "IC50", "Observed value": "< 1 µM"}

* * *

# Experimental target: SHP-2 enzyme (Met1-Leu525) (Homo sapiens, UniProt Q06124)
# Construct: synthetized by Origene, Met1-Leu525, cat #TP750155
# Sequence (Q06124 1-525): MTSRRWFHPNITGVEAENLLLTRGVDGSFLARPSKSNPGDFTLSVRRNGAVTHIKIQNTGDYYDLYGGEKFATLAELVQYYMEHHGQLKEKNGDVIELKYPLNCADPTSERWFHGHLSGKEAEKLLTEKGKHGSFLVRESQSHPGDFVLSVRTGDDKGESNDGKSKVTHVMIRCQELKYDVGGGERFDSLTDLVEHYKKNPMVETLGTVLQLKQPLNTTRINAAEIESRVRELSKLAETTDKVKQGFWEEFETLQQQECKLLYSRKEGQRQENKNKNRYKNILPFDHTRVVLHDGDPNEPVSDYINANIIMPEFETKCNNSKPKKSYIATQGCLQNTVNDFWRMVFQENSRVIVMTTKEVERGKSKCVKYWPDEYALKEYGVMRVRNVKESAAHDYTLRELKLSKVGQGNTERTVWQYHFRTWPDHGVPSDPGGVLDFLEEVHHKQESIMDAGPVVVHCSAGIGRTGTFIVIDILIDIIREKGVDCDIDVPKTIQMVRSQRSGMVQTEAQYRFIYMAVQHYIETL
# Method: SHP2 inhibition enzymatic assay (DiFMUP substrate, IRS1 peptide activation)
# Run conditions: SHP2 wt; activated by 500 nM IRS1 peptide; 75 μM DiFMUP substrate
# Protocol: SHP2 Inhibition Enzymatic Assay Assay volume of 20 μL/well was assembled in 384 well black polystyrene low-binding microplates (Greiner), using the following buffer: 60 mM HEPES pH 7.2, 75 mM NaCl, 75 mM KCl, 1 mM EDTA pH 8, 0.05% tween-20, 5 mM DTT. […] Briefly, DMSO serially diluted testing compounds were transferred to the bottom of the assay plate. […] The fluorescence was detected by a microplate reader (Envision, PerkinElmer) according to the DiFMUP excitation and emission wavelength. […]
IC50: recorded values

{"Compound": "Nc1nccc(Sc2cnc3nc(N4CCC5(CC4)Cc4ccc(F)cc4[C@H]5N)[nH]c3n2)c1Cl [Example 175]", "Experimental target": "SHP-2 enzyme (Met1-Leu525) (Homo sapiens, UniProt Q06124)", "IC50": "< 500 nM"}
{"Compound": "Cn1c(N2CCC(C)(N)CC2)nc2ncc(Sc3cccnc3C(F)(F)F)nc21 [Example 4]", "Experimental target": "SHP-2 enzyme (Met1-Leu525) (Homo sapiens, UniProt Q06124)", "IC50": "500 to 3000 nM"}
{"Compound": "COc1cnccc1Sc1cnc2nc(N3CCC4(CC3)Cc3ccc(F)cc3[C@H]4N)[nH]c2n1 [Example 182]", "Experimental target": "SHP-2 enzyme (Met1-Leu525) (Homo sapiens, UniProt Q06124)", "IC50": "< 500 nM"}
{"Compound": "CC1(N)CCN(c2nc3nc(Sc4cccc5ncncc45)cnc3[nH]2)CC1 [Example 100]", "Experimental target": "SHP-2 enzyme (Met1-Leu525) (Homo sapiens, UniProt Q06124)", "IC50": "500 to 3000 nM"}
{"Compound": "N[C@@H]1c2cccnc2CC12CCN(c1nc3ncc(Sc4cc(Cl)c5[nH]c(=O)oc5c4)nc3[nH]1)CC2 [Example 168]", "Experimental target": "SHP-2 enzyme (Met1-Leu525) (Homo sapiens, UniProt Q06124)", "IC50": "< 500 nM"}
{"Compound": "Cc1cc(Cl)ccc1Sc1cnc2[nH]c(N3CCC(C)(N)CC3)nc2n1 [Example 38]", "Experimental target": "SHP-2 enzyme (Met1-Leu525) (Homo sapiens, UniProt Q06124)", "IC50": "< 500 nM"}
{"Compound": "COC(=O)c1c(N2CCC3(CC2)Cc2ccccc2[C@H]3N)[nH]c2ncc(Sc3cccc(Cl)c3Cl)nc12 [Example 253]", "Experimental target": "SHP-2 enzyme (Met1-Leu525) (Homo sapiens, UniProt Q06124)", "IC50": "< 500 nM"}
{"Compound": "N[C@@H]1c2cc(F)ccc2CC12CCN(c1nc3ncc(Sc4ccncc4F)nc3[nH]1)CC2 [Example 187]", "Experimental target": "SHP-2 enzyme (Met1-Leu525) (Homo sapiens, UniProt Q06124)", "IC50": "< 500 nM"}
{"Compound": "FC(F)(F)c1ncccc1Sc1cnc2[nH]c(N3CCCCC3)nc2n1 [Example 31]", "Experimental target": "SHP-2 enzyme (Met1-Leu525) (Homo sapiens, UniProt Q06124)", "IC50": "500 to 3000 nM"}
{"Compound": "Cc1nc(-c2cccc(Sc3cnc4[nH]c(N5CCC(C)(N)CC5)nc4n3)c2)cs1 [Example 48]", "Experimental target": "SHP-2 enzyme (Met1-Leu525) (Homo sapiens, UniProt Q06124)", "IC50": "500 to 3000 nM"}
{"Compound": "CC1(N)CCN(c2nc3nc(Sc4nc5ccccc5c(=O)[nH]4)cnc3[nH]2)CC1 [Example 91]", "Experimental target": "SHP-2 enzyme (Met1-Leu525) (Homo sapiens, UniProt Q06124)", "IC50": "500 to 3000 nM"}
{"Compound": "Cn1cc2cccc(Sc3cnc4[nH]c(N5CCC6(CC5)Cc5ccccc5[C@H]6N)nc4n3)c2n1 [Example 202]", "Experimental target": "SHP-2 enzyme (Met1-Leu525) (Homo sapiens, UniProt Q06124)", "IC50": "< 500 nM"}
{"Compound": "N[C@@H]1c2ccccc2CC12CCN(c1nc3nc(Sc4ccncc4Cl)cnc3[nH]1)CC2 [Example 148]", "Experimental target": "SHP-2 enzyme (Met1-Leu525) (Homo sapiens, UniProt Q06124)", "IC50": "< 500 nM"}
{"Compound": "Nc1nccc(Sc2cnc3[nH]c(N4CCC5(CC4)Cc4ncccc4[C@H]5N)nc3n2)c1Cl [Example 145]", "Experimental target": "SHP-2 enzyme (Met1-Leu525) (Homo sapiens, UniProt Q06124)", "IC50": "< 500 nM"}
{"Compound": "CC(=O)Nc1nccc(Sc2cnc3[nH]c(N4CCC5(CC4)Cc4ccccc4[C@H]5N)nc3n2)c1Cl [Example 147]", "Experimental target": "SHP-2 enzyme (Met1-Leu525) (Homo sapiens, UniProt Q06124)", "IC50": "< 500 nM"}
